# studySystem: Gonadotropin-releasing hormone receptor (Homo sapiens, UniProt P30968, H306K)
# Sequence (P30968 whole entry H306K): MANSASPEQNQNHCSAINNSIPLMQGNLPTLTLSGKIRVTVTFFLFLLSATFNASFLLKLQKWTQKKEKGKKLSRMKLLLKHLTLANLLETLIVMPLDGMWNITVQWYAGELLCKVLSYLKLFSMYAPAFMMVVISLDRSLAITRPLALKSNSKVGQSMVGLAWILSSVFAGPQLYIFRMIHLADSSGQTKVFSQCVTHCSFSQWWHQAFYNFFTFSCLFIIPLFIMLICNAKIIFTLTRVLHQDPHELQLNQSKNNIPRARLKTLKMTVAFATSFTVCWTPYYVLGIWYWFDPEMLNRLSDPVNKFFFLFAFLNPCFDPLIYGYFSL
# methodNotes: Displacement of [125I]-His5, D-Tyr6]GnRH from mutant GnRHR, GnRHR H306K
Give IC50 for every item shown.
Numbers only here, please. The scale is nM.

Find the recorded IC50 belonging to CC(C)C[C@H](NC(=O)[C@@H](Cc1ccc(O)cc1)NC(=O)[C@H](Cc1c[nH]cn1)NC(=O)[C@H](CO)NC(=O)[C@H](Cc1c[nH]c2ccccc12)NC(=O)[C@H](Cc1c[nH]cn1)NC(=O)[C@@H]1CCC(=O)N1)C(=O)N[C@@H](CCCN=C(N)N)C(=O)N1CCC[C@H]1C(=O)NCC(N)=O and report it.
66.2

Quick check: IC50 of COc1c(C)cc(-c2[nH]c3ccc(C(C)(C)C(=O)N(CC(C)C)CC(C)C)cc3c2[C@H](C)CNCCc2ccccc2)cc1C ?
101

====

# studySystem: Gonadotropin-releasing hormone receptor (Homo sapiens, UniProt P30968, T51A)
# Sequence (P30968 whole entry T51A): as the sequence (P30968 whole entry H306K) above, with T51A, K306H counted along it
# methodNotes: Displacement of [125I]-His5, D-Tyr6]GnRH from mutant GnRHR, GnRHR T51A
reportedEndpoint: pIC50
To interpret pIC50, take it as minus log10 of a concentration measured in moles per litre.

# pIC50 lookup, item CC(C)C[C@H](NC(=O)[C@@H](Cc1ccc(O)cc1)NC(=O)[C@H](Cc1c[nH]cn1)NC(=O)[C@H](CO)NC(=O)[C@H](Cc1c[nH]c2ccccc12)NC(=O)[C@H](Cc1c[nH]cn1)NC(=O)[C@@H]1CCC(=O)N1)C(=O)N[C@@H](CCCN=C(N)N)C(=O)N1CCC[C@H]1C(=O)NCC(N)=O
8.51

What does the data say about its pIC50? Entry: COc1c(C)cc(-c2[nH]c3ccc(C(C)(C)C(=O)N(CC(C)C)CC(C)C)cc3c2[C@H](C)CNCCc2ccccc2)cc1C
7.80
